Provenance of the data: patent US5595730A

- System: Fibroblast Lactate Dehydrogenase
- METHOD: Fibroblast lactate dehydrogenase (LDH) inhibition, cell lysate
- Type: biochemical, human
- RUN_PARAMETERS: 2.5 mM
OUTCOME_MEASURE: Fibroblast Lactate Dehydrogenase Inhibition (% Inhibition) (%)
Output spec: scalar in %, unitless text.

Examples with answers:
NCC(=O)O [Glycinate] | 0
O=C(O)CC(=O)O [Malonate] | 0

Would you mind telling me what Fibroblast Lactate Dehydrogenase Inhibition (% Inhibition) value was observed for C[C@@H](O)C(=O)O [D-lactate] ?
0

O=C(O)C(=O)O [Oxalate] ?
85

O=C(O)C[C@H](O)C(=O)O [L-malate] ?
0

C[C@H](O)C(=O)O [L-lactate] ?
0

"c1cn[nH]c1" ?
0

O=C(O)CO [Glycolate] ?
0
